For each entry below, report its Log2 fold-change of gene expression: HGF value.
# System: angiogenesis genes in dermal microvascular endothelial cells
# procedure-summary: Real time RT-PCR of angiogenesis gene expression during endothelial tube formation
# Type: cell-based
# condition-info: 1 μM SM, 24 hours
Numbers only.

Example results:
>>> reported_measurement("CC1CCN(CC[S-])CC1.O.O.[Cl][Pt+] [compound 292596]")
2.2
>>> reported_measurement("COc1cc2cc(c1Cl)N(C)C(=O)CC(OC(=O)C(C)C)C1(C)OC1C(C)C1CC(O)(NC(=O)O1)C(OC)/C=C/C=C(\\C)C2 (stereo not drawn) [compound 292222]")
1.3
>>> reported_measurement("O=C1C(=Cc2ccccc2)C(NC2CCCCC2)c2ccccc21 (stereo not drawn) [compound 150117]")
1.5
>>> reported_measurement("COc1ccc(CC2C(=O)NC(C)C(=O)N(C)C3Cc4ccc(cc4)Oc4cc(ccc4O)CC(C(=O)NC(C)C(=O)NC(C)C(=O)N2C)N(C)C3=O)cc1 (stereo not drawn) [compound 259969]")
1.5
>>> reported_measurement("COC(=O)C1CC(=O)C(C(=O)OC)CC1=O (stereo not drawn) [Compound 122567]")
1.3

With those in mind, consider the next compound.
Given item CCC(=O)OCN1C(=O)C=CC1=O [compound 19630] , the value recorded as its Log2 fold-change of gene expression: HGF is −0.3
